protocol text: chemical genetic growth profiling, strain panel (AID 1159580);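 also: tested at 20 µM; growth read once vehicle control cultures reached saturation at 30 °C; 1 = growth at the plate median or of vehicle wells; lower values mean less growth of the strain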
cond: S. cerevisiae deletion strains, growth OD, locus YGL227W, strain vid30
Screen size: about 5,500 compounds; about 2,000 (36%) were called active. Not shown: some 18% with an inconclusive outcome. Rule as the data show it: active = normalized growth mostly below about 0.91 (no sharp cut-off); inconclusive = no clear call, values can overlap the other calls; inactive = mostly above about 0.92. The list shows a part of the results.
Classes used: active, inactive

molecule: CCCN(CCC)c1c([N+](=O)[O-])cc(C(F)(F)F)cc1[N+](=O)[O-]
category: inactive

molecule: COc1cc2c(cc1OC)C(C)NCC2 (stereo not given)
category: inactive

molecule: C[N+]12CCC(CC1)C(OC(=O)C(O)(c1ccccc1)c1ccccc1)C2 (stereo not given)
category: inactive

molecule: CC(C)CCCC(C)N (stereo not given)
category: inactive

molecule: CC12CCC(OC(=O)c3ccccc3)CC1CCc1ccccc12 (stereo not given)
category: inactive

molecule: NC(=NCCCCCCN=C(N)N=C(N)Nc1ccc(Cl)cc1)N=C(N)Nc1ccc(Cl)cc1
category: active

molecule: O=C(O)CCC(=O)OC[C@@H](NC(=O)C(Cl)Cl)[C@H](O)c1ccc([N+](=O)[O-])cc1
category: inactive

molecule: CCC[C@@H]1C[C@@H](C(=O)N[C@H]([C@H]2O[C@H](SC)[C@H](O)[C@@H](O)[C@H]2O)[C@H](C)O)N(C)C1
category: inactive

molecule: O=C(O)CC[N+](=O)[O-]
category: inactive

molecule: C/C(=C\CO)CC[C@H](C)CCC[C@H](C)CCCC(C)C
category: active

molecule: CN1CCCCC1c1ccc(-c2cccnc2)nc1 (stereo not given)
category: inactive

molecule: COc1ccc(NS(=O)(=O)c2ccc(N)cc2)nn1
category: inactive

molecule: O=c1c(O)c(-c2ccc(O)cc2)oc2ccccc12
category: inactive

molecule: CCCCCC/C=C\CCCCCCCc1cccc(O)c1C(=O)O
category: inactive

molecule: C=CC[C@@H]1/C=C(\C)C[C@H](C)C[C@H](OC)[C@H]2O[C@@](O)(C(=O)C(=O)N3CCCC[C@H]3C(=O)O[C@H](/C(C)=C/[C@@H]3CC[C@@H](O)[C@H](OC)C3)[C@H](C)[C@@H](O)CC1=O)[C@H](C)C[C@@H]2OC
category: inactive

molecule: Cc1cc(O)c2c(c1)C(=O)c1cccc(O)c1C2=O
category: inactive

molecule: CC(C)C1CCC(C(=O)N[C@@H](Cc2ccccc2)C(=O)O)CC1 (stereo not given in full)
category: inactive

molecule: O=C1C=CC(=O)c2c(O)c(Cl)c(Cl)c(O)c21
category: active

molecule: CC(=O)Nc1c(I)cc(I)c(C(=O)O)c1I
category: inactive

molecule: NS(=O)(=O)c1cc2c(cc1Cl)NCNS2(=O)=O
category: inactive

molecule: CC(=O)O[C@H]1CC2CCC3C(CC[C@@]4(C)C3C[C@H]([N+]3(C)CCCCC3)[C@@H]4OC(C)=O)[C@@]2(C)C[C@@H]1N1CCCCC1 (stereo not given in full)
category: inactive

molecule: CCC1(C2=NCCN2)Cc2ccccc2O1 (stereo not given)
category: inactive

molecule: CC(=O)NC1C(O)OC(COS(=O)(=O)O)C(OC2OC(C(=O)O)C(OC3OC(CO)C(OC4OC(C(=O)O)C(O)C(O)C4OS(=O)(=O)O)C(OS(=O)(=O)O)C3NS(=O)(=O)O)C(O)C2OS(=O)(=O)O)C1O (stereo not given)
category: inactive

molecule: CC1=C(C(=O)O)N2C(=O)[C@@H](NC(=O)[C@@H](N)c3ccc(O)cc3)[C@H]2SC1
category: inactive

molecule: CN1CCN(C2=Nc3cc(Cl)ccc3Nc3ccccc32)CC1
category: inactive

molecule: O=c1c(O)c(-c2ccccc2)oc2ccccc12
category: active

molecule: O=C(c1ccccc1)c1ccc2n1CCC2C(=O)O (stereo not given)
category: inactive

molecule: ClC1C(Cl)C(Cl)C(Cl)C(Cl)C1Cl (stereo not given)
category: inactive

molecule: O=C1C=CC(=O)c2c(O)cccc21
category: inactive

molecule: CC(C)[C@@H]1CC[C@@H](C)C[C@H]1OC(=O)c1ccccc1
category: inactive

----------
# reported normalized growth; entries follow
protocol text: chemical genetic growth profiling, strain panel (AID 1159580)
cond: S. cerevisiae deletion strains, growth OD, locus YLR262C, strain YPT6 (second series), active compounds read low
In all, about 5,500 compounds went through this assay and about 2,000 (36%) were called active. Roughly 18% stayed inconclusive and do not appear here. The list shows a part of the results.

molecule: COC(=O)C[C@H]1C(C)(C)[C@@H](OC(C)=O)[C@@H]2CC3=C4CC(=O)O[C@@H](c5ccoc5)[C@]4(C)CCC3[C@@]1(C)C2=O (stereo not given in full)
normalized growth: 1.02
--
molecule: CNC(C)[C@@H]1CC[C@@H](N)[C@@H](OC2[C@@H](N)C[C@@H](N)[C@H](OC3OC[C@](C)(O)[C@H](NC)[C@H]3O)[C@H]2O)O1 (stereo not given in full)
normalized growth: 0.977
--
molecule: C[N+]12CCC(CC1)C(OC(=O)C(O)(c1ccccc1)c1ccccc1)C2 (stereo not given)
normalized growth: 0.955
--
molecule: Cn1c(=O)c2c(ncn2CCO)n(C)c1=O
normalized growth: 1.08
--
molecule: Cn1c(=O)[nH]c2nc[nH]c2c1=O
normalized growth: 0.979

----------
protocol text: chemical genetic growth profiling, strain panel (AID 1159580)
cond: S. cerevisiae deletion strains, growth OD, locus YPR111W, strain DBF20
Among all 5,500 compounds or so, about 2,000 (36%) were called active. Inconclusive results (about 18%) are left out. No stated cut-off is given here; in the data, active means normalized growth mostly below about 0.91 (no sharp cut-off); inconclusive means no clear call, values can overlap the other calls; inactive means mostly above about 0.92. The list shows a part of the results.
Classes used: t (active), f (inactive)

molecule: Cc1cc(Sc2c([N+](=O)[O-])cc(C(F)(F)F)cc2[N+](=O)[O-])c(Cl)cc1Cl
category: f
--
molecule: Cc1csc2c(N3CCN(C(=S)Nc4ccc(C(F)(F)F)cc4)CC3)ncnc12
category: f
--
molecule: O=C(NCc1ccc2c(c1)OCO2)c1cc2ccccc2s1
category: t
--
molecule: O=[N+]([O-])c1ccc(Sc2ccccc2)cc1O
category: f
--
molecule: C=CCC1C(=O)N(S(=O)(=O)c2ccc(Cl)cc2)N=C1CCC (stereo not given)
category: f

----------
protocol text: chemical genetic growth profiling, strain panel (AID 1159580);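 also: tested at 20 µM; growth read once vehicle control cultures reached saturation at 30 °C; 1 = growth at the plate median or of vehicle wells; lower values mean less growth of the strain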
cond: S. cerevisiae deletion strains, growth OD, locus YOR070C, strain gyp1
The whole screen tested about 5,500 compounds, of which about 2,000 (36%) were called active. Inconclusive results (about 18%) are left out. Cut-off read from the data, not from the text of the source: active = normalized growth mostly below about 0.91 (no sharp cut-off); inconclusive = no clear call, values can overlap the other calls; inactive = mostly above about 0.92. Some of the results follow.
Classes used: active, inactive

molecule: Oc1cc2c(cc1O)C(c1ccccc1)CNCC2 (configuration not stated)
category: inactive

molecule: O=C1C=CC(=O)c2ccccc21
category: active

molecule: CC1CC(OC(=O)c2ccccc2O)CC(C)(C)C1 (configuration not stated)
category: inactive

molecule: CC(=O)Oc1c(C)c(C)c2c(c1C)CCC(C)(CCCC(C)CCCC(C)CCCC(C)C)O2 (configuration not stated)
category: inactive

molecule: CC(=O)c1ccc[nH]1
category: inactive

molecule: COc1cc(Cc2cnc(N)nc2N)cc(OC)c1OC
category: inactive

molecule: O=C(Nc1ccc([N+](=O)[O-])cc1Cl)c1cc(Cl)ccc1O
category: active

----------
protocol text: chemical genetic growth profiling, strain panel (AID 1159580);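 also: tested at 20 µM; growth read once vehicle control cultures reached saturation at 30 °C; 1 = growth at the plate median or of vehicle wells; lower values mean less growth of the strain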
cond: S. cerevisiae deletion strains, growth OD, locus YLR221C, strain rsa3
The whole screen tested about 5,500 compounds, of which about 2,000 (36%) were called active. Inconclusive results (about 18%) are left out. No stated cut-off is given here; in the data, active means normalized growth mostly below about 0.91 (no sharp cut-off); inconclusive means no clear call, values can overlap the other calls; inactive means mostly above about 0.92. Some of the results follow.
Classes used: yes for active, no for inactive

compound: COCC1=C(C(=O)OC(C)OC(=O)OC(C)C)N2C(=O)[C@@H](NC(=O)/C(=N\OC)c3csc(N)n3)[C@H]2SC1 (some centres undefined)
category: no

compound: O=C(O)CCC(=O)OC[C@@H](NC(=O)C(Cl)Cl)[C@H](O)c1ccc([N+](=O)[O-])cc1
category: no

compound: CC1(C)CC23C(=O)CCC(O)C2(C)CCC13 (centres undefined)
category: no

compound: COc1cc(Cc2cnc(N)nc2N)cc(OC)c1OC
category: no

compound: O=C(N[C@@H](CO)[C@H](O)c1ccc([N+](=O)[O-])cc1)C(Cl)Cl
category: no

compound: CCCCN(CC)c1c([N+](=O)[O-])cc(C(F)(F)F)cc1[N+](=O)[O-]
category: no

compound: COc1ccccc1OCC(O)COC(N)=O (centres undefined)
category: no

compound: C/C(=C\CO)CC[C@H](C)CCC[C@H](C)CCCC(C)C
category: yes

compound: CC(=O)NS(=O)(=O)c1ccc(N)cc1
category: no

----------
protocol text: chemical genetic growth profiling, strain panel (AID 1159580);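 also: tested at 20 µM; growth read once vehicle control cultures reached saturation at 30 °C; 1 = growth at the plate median or of vehicle wells; lower values mean less growth of the strain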
cond: S. cerevisiae deletion strains, growth OD, locus YBR009C, strain hhf1, active compounds read low
In all, about 5,500 compounds went through this assay and about 2,000 (36%) were called active. Another 18% or so got no clear call; they are omitted. The list shows a part of the results.
measurement name: normalized growth

compound: C=C[C@H]1CN2CC[C@H]1C[C@H]2[C@H](O)c1ccnc2ccccc12
recorded result: 0.992
//
compound: O=C(c1ccccc1)c1ccc2n1CCC2C(=O)O (stereo not given)
recorded result: 0.991
//
compound: CNC(=O)Oc1ccccc1OC(C)C
recorded result: 0.99
//
compound: CC(=O)Nc1c(I)cc(I)c(C(=O)O)c1I
recorded result: 0.992
//
compound: CC1(C)CC23C(=O)CCC(O)C2(C)CCC13 (stereo not given)
recorded result: 1.02
//
compound: C[N+]12CCC(CC1)C(OC(=O)C(O)(c1ccccc1)c1ccccc1)C2 (stereo not given)
recorded result: 0.989
//
compound: O=C(O)[C@H]1/C(=C/CO)O[C@@H]2CC(=O)N21
recorded result: 1.01
//
compound: CCC1(C2=NCCN2)Cc2ccccc2O1 (stereo not given)
recorded result: 1.01
//
compound: CO/N=C(/C(=O)NC1C(=O)N2C(C(=O)OCOC(=O)C(C)(C)C)=C(/C=C\c3scnc3C)CSC12)c1csc(N)n1 (stereo not given)
recorded result: 0.98
//
compound: CCC[C@@H]1C[C@@H](C(=O)N[C@H]([C@H]2O[C@H](SC)[C@H](O)[C@@H](O)[C@H]2O)[C@H](C)O)N(C)C1
recorded result: 1.01
